src = patent US11377451B2

# PROTOCOL_DETAILS: Protein binding (fraction unbound in blood and brain)
# SETUP_CONDITIONS: brain, Fu (brain), fraction unbound
ENDPOINT_LABEL: fraction unbound

Fc1c(Br)cccc1Nc1ncnc2cc3c(cc12)O[C@@H](CN1CCNCC1)CO3 [JGK083S]
0.0242
CN1CCN(CC2COc3cc4ncnc(Nc5cccc(Br)c5F)c4cc3O2)CC1 (racemic) [JGK068]
0.0211
Fc1c(I)cccc1Nc1ncnc2cc3c(cc12)OCCO3 [JGK042]
0.0114
CN1CCN(C[C@@H]2COc3cc4ncnc(Nc5cccc(Br)c5F)c4cc3O2)CC1 [JGK068R]
0.0157
C#Cc1cccc(Nc2ncnc3cc4c(cc23)OCCO4)c1F [JGK038]
0.0089
C#Cc1cccc(Nc2ncnc3cc4c(cc23)OCCO4)c1 [JGK005]
0.0102
Fc1cccc(Nc2ncnc3cc4c(cc23)OCCO4)c1F [JGK028]
0.0141
C#Cc1cccc(Nc2ncnc3cc(OCCOC)c(OCCOC)cc23)c1 [Erlotinib, erlotinib]
0.0293
